- Target: T1, Bbc1, P47068
- T1 sequence (P47068 1-78, looked up): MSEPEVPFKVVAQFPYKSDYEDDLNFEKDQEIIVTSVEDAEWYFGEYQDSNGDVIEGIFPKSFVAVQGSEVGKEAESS
- Protocol text: SPOT array
- Run parameters: median of control spots 796
Quantity: SPOT intensity
When you answer, write just the number.

> print(dat)
            binder        quantity  result.value
1  QFDLKMPSKPIHNLK  SPOT intensity             0
2  LKHGWKPLRPIKLIS  SPOT intensity            14
3  APPPPPRRATPEKKP  SPOT intensity            14

So for EAEEAAPQLPSRSSA , the logged SPOT intensity turned out to be 0
